# measurement-protocol: Pharmacokinetics (plasma and urine) of ascending multiple oral doses in healthy volunteers
# Format: in vivo, human
# experimental-conditions: both sexes, human, plasma, oral, 100 mg, 100 mg QD, Day 14, plasma, healthy subjects (N = 8); geometric mean; read-out: Ctrough
measure-name: concentration at 24 h (ng/mL)

1) O[C@H]1CC[C@H](Nc2ncc3nc(Nc4c(F)cc(F)cc4F)n([C@H]4CCOC4)c3n2)CC1 | 400

----------
# measurement-protocol: Pharmacokinetics of a single ascending oral dose in healthy male subjects
# Assay type: in vivo, human
# experimental-conditions: human, in vivo; single oral dose 200 mg, unformulated in capsule, healthy male subjects; geometric mean
measure-name: AUC(0-inf) (ng·h/mL)

1. O[C@H]1CC[C@H](Nc2ncc3nc(Nc4c(F)cc(F)cc4F)n([C@H]4CCOC4)c3n2)CC1 | 26400
